As shown below, each of these molecules has a reported TGI value.
Test system: KM20L2 colon
Assay summary: NCI tumour cell line growth inhibition, 48 h

Field: example entries. Status: answers known.
>  <Molecule>
Nc1ncnc2c1nnn2C1C=C(CO)C(O)C1O (configuration not stated)

>  <Assay readout>
TGI

>  <Reported>
> 100 µM

$$$$
>  <Molecule>
Cc1nc2ccccc2c(=O)n1/N=C(\N=Nc1cccc(Cl)c1)c1ccccc1Cl

>  <Assay readout>
TGI

>  <Reported>
> 100 µM

$$$$
>  <Molecule>
COc1cccc(NC(=O)CC(=O)NNCC(=O)Nc2nnc(-c3ccc(N(CCC#N)S(=O)(=O)c4ccccc4)cc3)s2)c1

>  <Assay readout>
TGI

>  <Reported>
> 100 µM

$$$$
>  <Molecule>
CCCCc1c2c(nc3c1CCc1cc4cc5c(nc4nc1-3)-c1nc3c(c(CCCC)c1CC5)CCC/C3=C\c1ccccc1)/C(=C/c1ccccc1)CCC2

>  <Assay readout>
TGI

>  <Reported>
> 100 µM

$$$$

# value lookup — system KM20L2 colon, readout TGI, item CN1CCc2c1nc(-c1cccnc1)c1c2N(C)CC1
> 100 µM

Could you do the same for Cc1ccc(NC(=O)CC2SC(N)=NC2=O)cc1C (configuration not stated) , please?
> 100 µM

Could you do the same for CCC1C(=O)OCc2c1cc1n(c2=O)C(CC)c2c-1nc1ccccc1c2Cl (configuration not stated) , please?
> 100 µM

Could you do the same for N.N.N.N.N.O=S(=O)([O-])C(F)(F)F.O=S(=O)([O-])C(F)(F)F.[Os+8] , please?
45.3 µM

Could you do the same for COCCOCOC(C)(C)[C@H](CCOC(C)=O)O[Si](c1ccccc1)(c1ccccc1)C(C)(C)C , please?
> 100 µM

Could you do the same for CCN(CC)CCCC(C)Nc1c(Sc2cnc3cc(Cl)ccc3c2NC(C)CCCN(CC)CC)cnc2cc(Cl)ccc12 (configuration not stated) , please?
3.09 µM

Could you do the same for O=C(COc1ccc(Cl)cc1)N1CCN(C(=O)COc2ccc(Cl)cc2)c2ccccc21 , please?
> 100 µM

Could you do the same for C#CCSc1nc(N)c2ncn(C3OC(COP(=O)(O)O)C(O)C3O)c2n1 (configuration not stated) , please?
> 239 µM
